- experiment.summary: yeast display, Sf9 membrane polyspecificity reagent, FACS + sequencing; frameworks hold sequencing errors
endpoint.name: polyreactivity (PSR sort gate)

Look over these answered cases.
QVQLVESAGGLVQAGGSLRLICAASGSIFVKYAMGWYRQATGKERELVAAISRSGGSTYYADSVKGRFTISRDNAKNTVYLQMTSLKPEDTAVYYCAADGFRGDMYYWGQGTQVTVSS
low polyreactivity
QVQIVESGAGIVQAGGSLRLSCAASGFIFDIYAMGWYRQAPGKERELVASITWDDGSTYYADSVKGRFTISRDNAKNTVYLQINSLKPEDTAVYYCAADFEAGGYSLDYWGQGTQVTVSS
low polyreactivity
QGQLVESGGGLVQAGGSLRLSCAASGSIFSKNALGWYRQAPGRERELVAAITSGASTNYADSVKGRFTISRDNAKNTVYLQMNSLKPEDTAGYYCAAKRNGFWYGYWGQGTQVTVSS
low polyreactivity
QVQLVESGGGLVQAGGSLRLSCAASGRTFYYYTMGWYRQAPGKERELVAANTWNGGSTYYADSVKGRFTISRDNAKNTVYLQMNSLKPEDPAVYYCNARWTWRYDYWGQGTQVTVSS
high polyreactivity
QVQLVESGGGLVQAGGSLRLSCAACGITFPTNMGWYRQAPGKERELVAAIRLSGGSTSYADSVKGRFTISRDNAKNSVYLQMTSLKPEDTAVSSCAAGGYPGGEDYWGQGTQVTVSS
low polyreactivity
QVQLVESGGGLVQAGGSLRLSCAASGSTFDQYAMGWYRQAPGKDRELVAAISGSGGRTSYADSVKGRFTISRDNAKNTVYLQMNSLKPEDTAVYYCNKASYRISVPRYDYWGQGTQVTVTS
high polyreactivity

Challenge: Field request: polyreactivity (PSR sort gate) | item: "QVQLVESGGGLVQAGGSLRLSCAASGSIFVYYAMGWYRQAPGKERELVAAIDVSDGGTYYAESVKGRFTISRDNAKNTVYLQMNSLKPEVTAVYYCAADQGIDVPYIGYDYWGQGTQVTVSS"
Response given: high polyreactivity

Challenge: Field request: polyreactivity (PSR sort gate) | item: "QVQLVESGGGLVQAGGSLRLSCAASGRTFWKYAMGWYRQAPGKERELVAAITASGARTYYADSVKGRFTISRDNAKNTVYLQLNSLKPEDTAVYYCNAGSVSDRQMDYWGQGTQVTVSS"
Response given: low polyreactivity

Challenge: Field request: polyreactivity (PSR sort gate) | item: "QVQLVESGGGLVQAGGSLRLSCAASGYIFYNAMGSYRQAPGKERELVAAISSSGGTTYADSVKGRFTISRDNAKNTVYLQMNSLKPEDTAVYYCAARSEFYWGWEYITYDYWGQGTQVTVSS"
Response given: low polyreactivity

Challenge: Field request: polyreactivity (PSR sort gate) | item: "QVQLVESGGGLVQAGGSLRLSCAASGSTFVGYAMGWYRQAPGKERELVAGITASGTNTYYADSVKGRFTISRDNAKNTVYLQMNSLKPEDTAVYYCAAAFVRPPPYVGYSRFDYWGQGTQVTVSS"
Response given: high polyreactivity

Challenge: Field request: polyreactivity (PSR sort gate) | item: "QVQLVESGGGLVQAGGSLRLSCAASGSIFWAYTMGWYRQAPGKERELVAAISASGGSTYYADSVKGRFTISRDNAKNTVYFQMNSLKPEDTAVYYCAAVYDLGYYGPIWAIVLDDYWGQGTQVTVSS"
Response given: low polyreactivity
